In this section we review reported EC50 values for a set of compounds.
System: ADR multi-drug resistant breast cancer cell line
Assay Comment: ATP luminescence (CellTiter-Glo) cell viability assay, ADR
Assay type: cell-based
Condition Description: ADR multidrug resistant breast cancer cell line; 72 h; ATP content; read-out: EC50 (nM) ADR

C[C@@H](O)[C@@]12O[C@]13c1cc(O)c4c(c1N[C@H]2C#C/C=C\C#C[C@H]3O)C(=O)c1ccc(N)cc1C4=O [Compound 36a, 8-Amino-uncialamycin, reference compound]; 0.67 nM

**Query** Tell me reported EC50 for C[C@@H](O)[C@@]12O[C@]13c1cc(O)c4c(c1N[C@H]2C#C/C=C\C#C[C@H]3O)C(=O)c1ccccc1C4=O [Compound 26a, Uncialamycin] , tested with ADR multi-drug resistant breast cancer cell line.
**Result** 0.39 nM

**Query** Hi! What's the reported EC50 for COc1cc2c(c(OC)c1CN)C(=O)c1c(O)cc3c(c1C2=O)N[C@H]1C#C/C=C\C#C[C@@H](O)[C@@]32O[C@@]12[C@@H](C)O on ADR multi-drug resistant breast cancer cell line?
**Result** 0.34 nM

**Query** Kindly state the measured EC50 obtained for C[C@@H](O)[C@@]12O[C@]13c1cc(O)c4c(c1N[C@H]2C#C/C=C\C#C[C@@H]3O)C(=O)c1ccc(CN)cc1C4=O [Compound 48ab] with ADR multi-drug resistant breast cancer cell line.
**Result** 0.054 nM

**Query** Which measured EC50 belongs to C[C@@H](O)[C@@]12O[C@]13c1cc(O)c4c(c1N[C@H]2C#C/C=C\C#C[C@H]3O)C(=O)c1ccc(CN)cc1C4=O [Compound 48aa, 8-Aminomethyl-uncialamycin] , tested on ADR multi-drug resistant breast cancer cell line?
**Result** 0.02 nM

**Query** API: value(readout=EC50, system=ADR multi-drug resistant breast cancer cell line) for record C[C@@H](O)[C@@]12O[C@]13c1cc(O)c4c(c1N[C@H]2C#C/C=C\C#C[C@H]3O)C(=O)c1cc(CN)ccc1C4=O [Compound 48ba, 7-Aminomethyl-uncialamycin]
**Result** 0.029 nM
